Reported GI50 values for a set of molecules
Test system: OVCAR-5
assay-name: NCI tumour cell line growth inhibition, 48 h
Active and inactive are the calls of the source. Cut-off read from the data, not from the text of the source: active = GI50 up to about 1.1 µM and inactive = higher.

molecule	result
O=C1C=C(Nc2ccc(Br)cc2)c2ccccc2/C1=N/O	5.18 µM (inactive)
CC1CC(=O)Nc2nc3ccccc3n21 (stereo unspecified)	> 100 µM (inactive)
O=C1OS2(OCc3cccc4cccc2c34)c2ccccc21 (stereo unspecified)	> 100 µM (inactive)

In: # GI50 lookup, item Cn1c(=O)n(CC(Br)CBr)c(=O)n(CC(Br)CBr)c1=O (stereo unspecified)
Out: 43.9 µM (inactive)

In: Would you kindly repeat that for BrC(/C=N/Nc1nnc(-c2ccccc2)c(-c2ccccc2)n1)C(Br)c1ccccc1 (stereo unspecified) ?
Out: 51.5 µM (inactive)

In: Would you kindly repeat that for O=S(=O)(O)c1ccc2c(/N=N\c3ccc(F)cc3)c(O)c(S(=O)(=O)O)cc2c1 ?
Out: > 100 µM (inactive)

In: Would you kindly repeat that for COC(=O)c1c(C#N)c(N)nc2c1CCC2 ?
Out: > 100 µM (inactive)

In: Would you kindly repeat that for O=C(OCCNC(=O)N1CC1)OCCNC(=O)N1CC1 ?
Out: > 10 µM (inactive)

In: Would you kindly repeat that for Cc1cc(=O)n2nc(CSc3nnc(Sc4cc(O)ccc4O)s3)sc2n1 ?
Out: > 100 µM (inactive)

In: Would you kindly repeat that for CC(C)(C)OC(=O)N(O)CCCn1cnc2c(N)ncnc21 ?
Out: > 100 µM (inactive)

In: Would you kindly repeat that for CC1(C)OC[C@@H](C[C@H](O)COCc2ccccc2)O1 ?
Out: > 100 µM (inactive)

* * *

Tested on: SK-MEL-5
assay-name: NCI tumour cell line growth inhibition, 48 h
Activity calls are given as the source filed them. Rule as the data show it: active = GI50 up to about 1.1 µM and inactive = higher.
// allowed return values: active, inactive

compound	class-name
C/C(N)=N/OCc1nc(C)no1	inactive
CCOc1ccc(N(CC(=O)N2CC(=O)Nc3cc(C)c(C)cc32)C(C)=O)cc1	inactive
O=C1C=C(O)c2nc(O)ccc2C1=O	inactive
Cc1cc(S(=O)(=O)Nc2nc(N)n(-c3ccccn3)n2)c(S)cc1Cl	inactive
CC(=O)O[C@H]1CC[C@@H](OC(C)=O)[C@H]2[C@H](O)[C@H](O)[C@@H]1n1c(=O)n(-c3ccccc3)c(=O)n12	inactive
COc1ccc(C(c2c(O)c3ccccc3n(-c3ccccc3)c2=O)c2c(O)c3ccccc3n(-c3ccccc3)c2=O)cc1	inactive
O=C1C[C@H](c2ccc(O)c(O)c2)Oc2cc(O)cc(O)c21	inactive
C=C1C(=O)OC2CC1C(OC(=O)/C=C/c1ccccc1)C/C(C)=C/CC/C(C)=C/CCC2(C)O (centres undefined)	inactive
O=C1c2ccccc2C(=O)c2c(NCCNCCO)ccc(O)c21	inactive
CC(C)C1C(=O)NC(CO)Cc2c[nH]c3c(C(c4c[nH]c5ccccc45)C(O)CO)ccc(c23)N1C (centres undefined)	inactive

In: Which outcome did this test record for the compound N#C[BH2-][n+]1cn(C2CC(OP(=O)(O)OCC3OC(n4cnc5c(N)ncnc54)CC3O)C(CO)O2)c2nc(N)[nH]c(=O)c21 (centres undefined) ?
Out: inactive

In: Would you kindly repeat that for Cc1cc(O)c2c(c1)CC(O)C1=C2C(=O)c2c(O)ccc(OC3CC(O)C(OC4CC(OC5CCC(O)C(C)O5)C(O)C(C)O4)C(C)O3)c2C1=O (centres undefined) ?
Out: inactive

In: Would you kindly repeat that for CCOC(=O)c1c(SCCO)n(-c2ccccc2)c(=S)n(-c2ccccc2)c1=O ?
Out: inactive

In: Would you kindly repeat that for O=c1c2nc(-c3ccccc3)oc2n(-c2ccccc2)c(=O)n1-c1ccccc1 ?
Out: inactive

* * *

Tested on: HL-60
assay-name: NCI tumour cell line growth inhibition, 48 h
The source made the active and inactive calls. No stated cut-off is given here; in the data, active = GI50 up to about 1.1 µM and inactive = higher.
// allowed return values: active, inactive

compound	measured-on	class-name
Cc1cc(S(=O)(=O)Nc2nc(N)n(-c3ccccn3)n2)c(S)cc1Cl	HL-60	inactive
O=C1C=C(O)c2nc(O)ccc2C1=O	HL-60	inactive
COC(=O)c1c(C#N)c(N)nc2c1CCC2	HL-60	inactive
Nc1cccc2c1-c1c(cccc1[N+](=O)[O-])C2=O	HL-60	inactive
COc1ccc(S(=O)(=O)O)cc1-n1nc(C(=O)Nc2ccccc2)n[n+]1-c1cc(S(=O)(=O)[O-])ccc1OC	HL-60	inactive
O=C1[C@H]2ON(c3ccccc3)C(c3ccc(Cl)cc3)[C@H]2C(=O)N1c1ccc(Cc2ccc(N3C(=O)[C@@H]4ON(c5ccccc5)C(c5ccc(Cl)cc5)[C@@H]4C3=O)cc2)cc1 (stereo partly drawn)	HL-60	inactive
Cc1cc(C)c(C2=NOC(c3ccccc3)(c3cc(=O)n(-c4ccccc4)s3)O2)c(C)c1 (stereo not drawn)	HL-60	inactive
Cc1cc(C)[n+]2c(c1)C=CC2.[O-][Cl+3]([O-])([O-])[O-]	HL-60	inactive
COc1cc(S(=O)(=O)Nc2ccc(-c3csc(/N=C\c4cccc(Oc5ccccc5)c4)n3)cc2)ccc1Cl	HL-60	inactive
Cc1ccc(O)c(C(c2cccc(C(c3cc(C)ccc3O)c3cc(C)ccc3O)c2)c2cc(C)ccc2O)c1	HL-60	inactive

In: Which outcome did this test record for the compound CC(=S)NC=C(C(N)=O)C(N)=O ?
Out: inactive

In: Would you kindly repeat that for COC(=O)CCC(=O)NC1=C(Nc2ccccc2)C(=O)c2ccccc2C1=O ?
Out: inactive

* * *

Test system: EKVX
assay-name: NCI tumour cell line growth inhibition, 48 h
Active and inactive are the calls of the source. No stated cut-off is given here; in the data, active = GI50 up to about 1.1 µM and inactive = higher.
parameter-measured: GI50

compound	measured-on	GI50
C=C1CCC(O)C/C1=C/C=C1\CCCC2(C)C1CCC2C(C)CCCC(C)C (stereo unspecified)	EKVX	19 µM (inactive)
COc1cc(Cc2cnc(N)nc2N)cc(OC)c1OCCCNc1ccc([N+](=O)[O-])cc1	EKVX	15.3 µM (inactive)
CCOC(=O)CN(Cn1cncn1)Cn1cncn1	EKVX	43.8 µM (inactive)
Nc1nc(Cl)cc(OCC2(CO)CC=CC2)n1	EKVX	> 100 µM (inactive)
COc1cc(/C=C(\NC(=O)c2ccccc2)c2nc3c(O)nc(S)nc3[nH]2)cc(OC)c1OC	EKVX	> 100 µM (inactive)
CCC(N)(C(=O)O)C(C)C (stereo unspecified)	EKVX	> 100 µM (inactive)

In: Missing value: GI50, EKVX, entry O=C1OS2(OCc3cccc4cccc2c34)c2ccccc21 (stereo unspecified) . Fill in?
Out: > 100 µM (inactive)

In: Would you kindly repeat that for CCS/C(=N\c1ccccc1)SC ?
Out: > 100 µM (inactive)

In: Would you kindly repeat that for CC1=NC(=Cc2ccc(O)cc2)C(=O)N1n1c(-c2ccccc2)nc2ccccc2c1=O ?
Out: > 100 µM (inactive)

In: Would you kindly repeat that for O=C1C(=Cc2ccc(O)cc2)N=C(c2ccccc2)N1n1c(-c2ccccc2)nc2ccccc2c1=O ?
Out: > 100 µM (inactive)

In: Would you kindly repeat that for CC(C)(C)C(=O)OCC1CCC[N+]2(C)CCCCC12 (stereo unspecified) ?
Out: > 100 µM (inactive)

* * *

Reported GI50 values for a set of compounds
Test system: MDA-MB-435
assay-name: NCI tumour cell line growth inhibition, 48 h
Active and inactive are the calls of the source. Cut-off read from the data, not from the text of the source: active = GI50 up to about 1.1 µM and inactive = higher.

compound	GI50
CC1(C)C(/C=N\O)=[N+]([O-])C(C)(C)N1O	25.2 µM (inactive)

In: # GI50 lookup, item COc1ccc2c(c1)c1c(n2CCN2CCCCC2)-c2ccccc2CC1
Out: 17.5 µM (inactive)

In: Would you kindly repeat that for O[C@@H]1C=C[C@]23CCN(Cc4cc5c(cc42)OCO5)[C@@H]3C1 ?
Out: 57 µM (inactive)

In: Would you kindly repeat that for CCOC(=O)c1c(SCC#N)n(-c2ccccc2)c(=S)n(-c2ccccc2)c1=O ?
Out: 38.7 µM (inactive)

In: Would you kindly repeat that for CC(=O)OC[C@@]1(C)[C@@H]2[C@@H]3[C@@]4(CO[C@]3(C)C(=O)[C@@]3(OC(C)=O)C[C@H](C)[C@H](OC(C)=O)[C@@H]3[C@H]4OC(C)=O)[C@H](OC(=O)c3ccccc3)C[C@@H]21 ?
Out: > 100 µM (inactive)

In: Would you kindly repeat that for Cn1nc(C(=O)N2CC(CCl)c3c2cc([N+](=O)[O-])c2ccccc32)cc1NC(=O)Nc1cc(C(=O)N2CC(CCl)c3c2cc([N+](=O)[O-])c2ccccc32)nn1C (centres undefined) ?
Out: > 100 µM (inactive)

* * *

Reported GI50 values for a set of compounds
System: T47D
assay-name: NCI tumour cell line growth inhibition, 48 h
The source made the active and inactive calls. Cut-off read from the data, not from the text of the source: active = GI50 up to about 1.1 µM and inactive = higher.

compound	GI50
OC(C/C(=N\N=C(/CC(O)(C(F)(F)F)C(F)(F)F)c1ccccc1)c1ccccc1)(C(F)(F)F)C(F)(F)F	> 10 µM (inactive)

In: Missing value: GI50, T47D, entry NCCCN(CCCCN(CCCN)CCCc1ccccc1)CCCc1ccccc1 . Fill in?
Out: 6.84 µM (inactive)

In: Would you kindly repeat that for Cc1ccc(S(=O)(=O)N2CCN(S(=O)(=O)c3ccc(C)cc3)CCN(S(=O)(=O)c3ccc(C)cc3)Cc3cc(Br)c(Br)cc3CN(S(=O)(=O)c3ccc(C)cc3)CC2)cc1 ?
Out: > 100 µM (inactive)

In: Would you kindly repeat that for Cn1c(=O)n(CC(Br)CBr)c(=O)n(CC(Br)CBr)c1=O (centres undefined) ?
Out: 38.7 µM (inactive)

In: Would you kindly repeat that for [Se]=P(c1ccccc1)(c1ccccc1)c1ccc(C(c2ccccc2)=P(c2ccccc2)(c2ccccc2)c2ccccc2)cc1 ?
Out: 0.537 µM (active)

In: Would you kindly repeat that for CN1C/C(=C\c2cccs2)C(=O)/C(=C/c2cccs2)C1 ?
Out: 20.6 µM (inactive)

In: Would you kindly repeat that for CN(C)C(Cc1c[nH]cn1)C(=O)N1CCCC1C(N)=O (centres undefined) ?
Out: > 100 µM (inactive)

In: Would you kindly repeat that for O=Nc1ccc(O)c2ncccc12 ?
Out: 7.53 µM (inactive)

In: Would you kindly repeat that for COc1ccc(-c2c3c(nc4[nH]c(=S)[nH]c(=S)c24)CCCC3)cc1OC ?
Out: 25.9 µM (inactive)
